System: α1-AG
Test Summary: Fluorescence (excitation and fluorescence wavelength) with α1-AG
Assay type: physicochemical
Reported Excitation Wavelength values for a set of compounds
Enter your answer as a number in nm; do not include the unit.

# annotated cases, reported Excitation Wavelength shown
CCN(CC)c1ccc(-n2nc3cc(N)cc(Cl)c3n2)cc1 [Compound 1] ... 418
CNc1ccc(-n2nc3cc(N)cc(Cl)c3n2)cc1 [Compound 2] ... 396
Nc1cc(Cl)c2nn(-c3ccc(Nc4ccccc4)cc3)nc2c1 [Compound 3] ... 400
CCOC(=O)c1cc(N)cc2nn(-c3ccc(N(CC)CC)cc3)nc12 [Compound 5] ... 452

Please examine the following record next.
Lookup: Item Nc1cc(Cl)c2nn(-c3ccc(N4CCOCC4)cc3)nc2c1 [Compound 4] has what recorded Excitation Wavelength?
Found: 396
